Where do the numbers come from? From patent US11312712B2.

subject.of.test: GluA1o-γ8 (GRIA1o-CACNG8 fusion construct) (Homo sapiens (Human), UniProt P42261+Q8WXS5)
Sequence (P42261 other isoform, or with tags, fused parts or gaps): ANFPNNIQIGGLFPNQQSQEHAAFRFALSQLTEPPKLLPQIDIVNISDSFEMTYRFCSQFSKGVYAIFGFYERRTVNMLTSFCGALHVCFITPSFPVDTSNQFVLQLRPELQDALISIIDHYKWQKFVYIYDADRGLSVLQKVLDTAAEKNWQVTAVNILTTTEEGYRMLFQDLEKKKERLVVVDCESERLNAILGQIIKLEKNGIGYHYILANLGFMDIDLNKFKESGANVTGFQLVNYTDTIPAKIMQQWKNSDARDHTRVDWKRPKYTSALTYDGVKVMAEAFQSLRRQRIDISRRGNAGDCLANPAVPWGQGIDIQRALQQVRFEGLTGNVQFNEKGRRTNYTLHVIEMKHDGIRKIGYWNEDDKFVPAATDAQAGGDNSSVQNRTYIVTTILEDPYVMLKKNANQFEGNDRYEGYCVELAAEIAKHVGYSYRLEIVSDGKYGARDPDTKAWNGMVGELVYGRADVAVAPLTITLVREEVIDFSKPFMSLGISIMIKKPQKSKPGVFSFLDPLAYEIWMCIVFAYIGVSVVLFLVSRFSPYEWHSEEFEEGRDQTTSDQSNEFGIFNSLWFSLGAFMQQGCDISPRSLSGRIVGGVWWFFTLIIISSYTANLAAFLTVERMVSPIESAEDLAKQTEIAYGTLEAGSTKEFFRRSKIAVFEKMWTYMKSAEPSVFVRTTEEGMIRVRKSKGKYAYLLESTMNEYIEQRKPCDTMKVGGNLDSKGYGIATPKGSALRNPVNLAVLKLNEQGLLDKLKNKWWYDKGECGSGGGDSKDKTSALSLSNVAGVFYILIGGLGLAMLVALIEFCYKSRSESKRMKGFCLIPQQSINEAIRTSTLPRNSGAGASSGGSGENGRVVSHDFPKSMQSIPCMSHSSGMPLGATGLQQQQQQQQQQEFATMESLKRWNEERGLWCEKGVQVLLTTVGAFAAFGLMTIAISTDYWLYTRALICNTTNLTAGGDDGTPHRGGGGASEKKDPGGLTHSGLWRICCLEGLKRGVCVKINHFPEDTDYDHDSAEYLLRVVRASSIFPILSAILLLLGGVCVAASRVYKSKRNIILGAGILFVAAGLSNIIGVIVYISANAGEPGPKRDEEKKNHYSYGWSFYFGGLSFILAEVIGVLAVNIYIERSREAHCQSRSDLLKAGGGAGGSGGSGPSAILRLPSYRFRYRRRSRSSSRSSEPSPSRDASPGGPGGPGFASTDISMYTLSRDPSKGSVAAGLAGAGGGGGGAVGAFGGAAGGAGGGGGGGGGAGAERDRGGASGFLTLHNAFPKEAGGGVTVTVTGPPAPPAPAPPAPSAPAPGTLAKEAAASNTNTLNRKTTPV
experimental.details: Calcium flux assay (FLIPR), inhibition of TARP γ8 dependent AMPA receptor activity
conditions: GluA1o-γ8 (GRIA1o-CACNG8 fusion) in HEK293 cells, calcium flux after 15 μM glutamate
test.readout: IC50 (nM)

| smiles.representation | unit.abbreviation | IC50 |
| --- | --- | --- |
| Cc1ccc2nc(C3CC3)n(-c3ccc4[nH]c(=O)sc4c3)c2n1 | nM | 1 |
| O=C1Cc2cc(-n3c(C(F)F)nc4ccc(C(F)(F)F)nc43)ccc2N1 | nM | 50.1 |
| CC(C)c1cc2ccc(C(F)(F)F)nc2n1-c1cnc2c(c1)CC(=O)N2 | nM | 0.0316 |
| O=c1[nH]c2ccc(-n3c(C(F)(F)F)nc4ccc(C(F)(F)F)nc43)cc2o1 | nM | 6.31 |
| Cc1cc(-n2c(C(F)(F)F)nc3ccc(C(F)F)nc32)cc2cn[nH]c12 | nM | 0.0398 |
| O=C1Cc2cc(-n3c(CCCO)nc4ccc(C(F)(F)F)nc43)ccc2N1 | nM | 1260 |

A. Fc1cc(-c2nc3ccc(C(F)(F)F)nc3n2-c2ccc3[nH]ncc3c2)ccn1
B. O=c1[nH]c2ccc(-n3c(-c4ccc(F)cc4)nc4ccc(C(F)(F)F)nc43)cc2s1
Which of these two has the smaller recorded IC50: A or B ? Label of pick, please.
B
(B: 0.631 nM, A: 1.58 nM)
